Where these numbers come from: PubChem BioAssay (NCI)

assay: NCI Yeast Anticancer Drug Screen. Data for the cln2 rad14 strain (AID 165); settings: S. cerevisiae cln2 rad14 strain, at 5.0 µM (retest, dose inferred, filed as 0.5)
The panel holds about 79,000 compounds, 15% with a hit somewhere; the sample as a whole holds those more often. Calls of active or inactive are those of the source. Cut-off read from the data, not from the text of the source: active = growth inhibition above about 70%; inactive = the rest.
Can you answer with just one of these options? active, inactive

As a guide, the following entries are already answered.
O=C(c1ccc2ccccc2c1)N1CC1 = inactive
ClCCN(Cc1ccccc1)CC1COc2ccccc2O1 (stereo unspecified) = inactive
COC(CNS(=O)(=O)c1ccccc1)[CH2][Hg][O]C(C)=O (stereo unspecified) = inactive
Clc1ccc(Cl)c(Cl)c1 = inactive
CCCCCCCNC(=O)CI = inactive
Cc1ccc2c(c1)N(CCN(CCCl)CCCl)c1c(ccc3ccccc13)S2 = inactive
CC/C(=C\c1ccccc1)[N+](=O)[O-] = inactive
C[C@]12CC[C@H](O)C[C@@H]1CC[C@@H]1[C@@H]2CC[C@]2(C)C(=O)/C(=C/O)C[C@@H]12 = inactive

Prompt: Each molecule tested received a call. Report the one for C1=C[N-]c2c3c(ccc2=C1)=CC=C[N-]3.C1=C[N-]c2c3c(ccc2=C1)=CC=C[N-]3.F[P-](F)(F)(F)(F)F.[Cu+2] .
Completion: inactive

Prompt: Each molecule tested received a call. Report the one for COC(C)(C)[CH]([Hg][Cl])n1ccccc1=O (stereo unspecified) .
Completion: active

Prompt: Each molecule tested received a call. Report the one for C[n+]1c(/C=C/c2ccc(O)c3ccccc23)[se]c2ccccc21 .
Completion: inactive

###

assay: NCI Yeast Anticancer Drug Screen. Data for the mec2-1 strain (AID 157); conditions: S. cerevisiae mec2-1 strain, at 50.0 µM (retest, dose inferred, filed as 5.0)
About 79,000 compounds went through this panel and 15% of them were active in at least one assay; those are over-represented in the sample as a whole. Calls of active or inactive are those of the source. Rule as the data show it: active = growth inhibition above about 70%; inactive = the rest.
Can you answer with just one of these options? active, inactive

CCC[CH2][Sn]1([CH2]CCC)[O]C(=O)c2ccc(C)cc2[O]1 = active
COc1ccc(P2(=S)Oc3ccc(C(c4ccccc4)(c4ccccc4)c4ccccc4)cc3O2)cc1 (centres undefined) = active
CCOP(=S)(OCC)SSSP(=S)(OCC)OCC = inactive
O=c1ccc(N=Cc2ccc(N(CCCl)CCCl)cc2)ccc1O = active
O=C1C=C(Cl)C(=O)C(Cl)=C1 = active
O=C1C=CC(=O)C(Br)C1Br (centres undefined) = inactive

Prompt: Each compound tested received a call. Report the one for C[CH2][Sn]([Br])([CH2]C)[c]1ccccc1CN(C)C .
Completion: inactive

Prompt: Each compound tested received a call. Report the one for C[CH2][Pb]([CH2]C)([CH2]C)[O]C(=O)COc1ccc(Cl)cc1Cl .
Completion: active

Prompt: Each compound tested received a call. Report the one for O=[As](O)(O)CCc1ccccc1 .
Completion: inactive

###

test: NCI Yeast Anticancer Drug Screen. Data for the mlh1 rad18 strain (AID 175); conditions: S. cerevisiae mlh1 rad18 strain growth inhibition; at 50.0 µM; stronger effect = higher value
About 79,000 compounds went through this panel and 15% of them were active in at least one assay; those are over-represented in the sample as a whole.
# growth inhibition >= 40% gives TRUE, anything below gives FALSE

As a guide, the following entries are already answered.
CN(C)P(N)(=S)N(C)C = FALSE
Cc1cccc(N)c1N = FALSE

Prompt: Hello, I need to know if c1ccc(C(NC2=NCCO2)c2ccccc2)cc1 has measured growth inhibition not below 40%. Thanks!
Completion: FALSE

Prompt: Hello, I need to know if ClC(CN1CCCCC1)C(Cl)c1ccccc1 (stereo unspecified) has measured growth inhibition not below 40%. Thanks!
Completion: FALSE

Prompt: Hello, I need to know if CC1=C2C(=CC(C)(C)[C@@H]2O)C(=O)[C@](C)(O)C12CC2 has measured growth inhibition not below 40%. Thanks!
Completion: TRUE

Prompt: Hello, I need to know if Cc1nc2ccccc2[se]1 has measured growth inhibition not below 40%. Thanks!
Completion: FALSE

Prompt: Hello, I need to know if O=C1C(C(Nc2ccccc2)c2ccccc2)=C([O-])c2ccccc21.O=C1C(C(Nc2ccccc2)c2ccccc2)=C([O-])c2ccccc21.[Co+2] (stereo unspecified) has measured growth inhibition not below 40%. Thanks!
Completion: TRUE
